# TEST_PROTOCOL: chemical genetic growth profiling, strain panel (AID 1159580);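 further: tested at 20 µM; growth read once vehicle control cultures reached saturation at 30 °C; 1 = growth at the plate median or of vehicle wells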
# EXPERIMENTAL_PARAMETERS: S. cerevisiae deletion strains, growth OD, locus YPL078C, strain atp4
The whole screen tested about 5,500 compounds, of which about 2,000 (36%) were called active. Another 18% or so got no clear call; they are omitted. No stated cut-off is given here; in the data, active means normalized growth mostly below about 0.91 (no sharp cut-off); inconclusive means no clear call, values can overlap the other calls; inactive means mostly above about 0.92. The list shows a part of the results.
Labels: active, inactive

- COMPOUND: "CCOP(=S)(OCC)Oc1nc(Cl)c(Cl)cc1Cl"
  LABEL: "inactive"
- COMPOUND: "C[C@@H]1CC[C@H]2[C@@H](C)C(=O)O[C@@H]3O[C@@]4(C)CC[C@@H]1[C@]32OO4"
  LABEL: "active"
- COMPOUND: "C[C@@H]1C(=O)O[C@H]2[C@H]1CC[C@@]1(C)C=CC(=O)[C@@]3(C)O[C@@]213"
  LABEL: "inactive"
- COMPOUND: "NNc1nncc2ccccc12"
  LABEL: "inactive"
- COMPOUND: "Cc1ccc(-c2cc(C(F)(F)F)nn2-c2ccc(S(N)(=O)=O)cc2)cc1"
  LABEL: "inactive"
- COMPOUND: "Cc1cc(O)cc(O)c1C(=O)O"
  LABEL: "inactive"
- COMPOUND: "COc1cccc2c1C(=O)c1c(O)c3c(c(O)c1C2=O)C[C@@](O)(C(=O)CO)C[C@@H]3OC1C[C@H](N)[C@H](O)[C@H](C)O1 (stereo partly drawn)"
  LABEL: "active"
- COMPOUND: "O=C(Nc1ccc(C(=O)O)c(O)c1)c1ccccc1"
  LABEL: "inactive"
- COMPOUND: "CC1(C)CC[C@]2(C(=O)O)CC[C@]3(C)C(=CCC4[C@@]5(C)CC[C@@H](O)C(C)(C)C5CC[C@]43C)C2C1 (stereo partly drawn)"
  LABEL: "inactive"
- COMPOUND: "FC(F)(F)c1ccccc1-n1ccnc1"
  LABEL: "inactive"
- COMPOUND: "COC1=C[C@@H]2[C@@H]3Cc4ccc(OC)c(O)c4[C@]2(CCN3C)CC1=O"
  LABEL: "inactive"
- COMPOUND: "Clc1ccccc1C(c1ccccc1)(c1ccccc1)n1ccnc1"
  LABEL: "active"
- COMPOUND: "CNC(=O)O/N=C\\C(C)(C)SC"
  LABEL: "inactive"
- COMPOUND: "COc1ccc2c3c([nH]c2c1)C(C)=NCC3"
  LABEL: "inactive"
- COMPOUND: "C/C=C(/C)C(=O)O[C@@H]1[C@H](OC(C)=O)[C@@]2(CO)C(CC1(C)C)C1=CCC3[C@@]4(C)CC[C@H](O[C@@H]5O[C@H](C(=O)O)[C@@H](O[C@@H]6O[C@H](CO)[C@@H](O)[C@H](O)[C@H]6O)[C@H](O)[C@H]5O[C@@H]5O[C@H](CO)[C@@H](O)[C@H](O)[C@H]5O)[C@](C)(CO)C4CC[C@@]3(C)[C@]1(C)C[C@H]2O (stereo partly drawn)"
  LABEL: "inactive"
- COMPOUND: "COc1c(-c2coc3cc4c(cc3c2=O)CC(OC(C)=O)C(C)(C)O4)ccc2c1C=CC(C)(C)O2 (stereo not drawn)"
  LABEL: "inactive"
- COMPOUND: "Nc1c2c(nc3ccccc13)CCCC2O (stereo not drawn)"
  LABEL: "inactive"
- COMPOUND: "OC(CCN1CCCC1)(c1ccccc1)C1CCCCC1 (stereo not drawn)"
  LABEL: "inactive"
- COMPOUND: "O=c1[nH]cc(F)c(=O)[nH]1"
  LABEL: "active"
- COMPOUND: "Cc1ccnc(NS(=O)(=O)c2ccc(N)cc2)n1"
  LABEL: "inactive"
- COMPOUND: "Cc1cc(O)cc(=O)o1"
  LABEL: "inactive"
- COMPOUND: "OC(CCN1CCCCC1)(c1ccccc1)C1CC2C=CC1C2 (stereo not drawn)"
  LABEL: "inactive"
- COMPOUND: "CCN1C[C@]2(OC(=O)c3ccccc3NC(C)=O)CCC(OC)[C@]34C1[C@H](CC23)[C@@]1(O)CC(OC)[C@H]2CC4C1(O)[C@H]2OC (stereo partly drawn)"
  LABEL: "inactive"
- COMPOUND: "NC12CC3CC(CC(C3)C1)C2"
  LABEL: "inactive"
- COMPOUND: "CC(=O)/C=C\\[C@@H]1[C@@]2(C)CCCC(C)(C)C2CC[C@@]1(C)O (stereo partly drawn)"
  LABEL: "inactive"
- COMPOUND: "Nc1c2ccccc2nc2ccccc12"
  LABEL: "active"
- COMPOUND: "C[C@H]1[C@H](C)CC[C@]2(CO)CC[C@]3(C)C(=CCC4[C@@]5(C)CC[C@H](O)C(C)(C)C5CC[C@]43C)[C@H]12 (stereo partly drawn)"
  LABEL: "inactive"
- COMPOUND: "NCCC(=O)N[C@@H](Cc1cnc[nH]1)C(=O)O"
  LABEL: "inactive"

* * *

# TEST_PROTOCOL: chemical genetic growth profiling, strain panel (AID 1159580);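 further: tested at 20 µM; growth read once vehicle control cultures reached saturation at 30 °C; 1 = growth at the plate median or of vehicle wells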
# EXPERIMENTAL_PARAMETERS: S. cerevisiae deletion strains, growth OD, locus YNL067W, strain RPL9B, hits give low values
About 2,000 (36%) of roughly 5,500 compounds were called active. About 18% were inconclusive and are not listed. This is one part of the list.
Criterion: normalized growth strictly less than 0.9. Met: Yes. Not met: No.

- MOLECULE: "Nc1c2ccccc2nc2ccccc12 (tested in a mixture with another compound)"
  LABEL: "Yes"
- MOLECULE: "NC(Cc1c[nH]c2ccccc12)C(=O)O (stereo unspecified)"
  LABEL: "No"
- MOLECULE: "C[C@@H]1C(=O)O[C@H]2[C@H]1CC[C@@]1(C)C=CC(=O)[C@@]3(C)O[C@@]213"
  LABEL: "No"
- MOLECULE: "CC1C(=O)OC2C1CCC1(C)C=CC(=O)C3(C)OC213 (stereo unspecified)"
  LABEL: "No"
- MOLECULE: "C[C@@H]1CC[C@H]2[C@@H](C)C(=O)O[C@@H]3O[C@@]4(C)CC[C@@H]1[C@]32OO4"
  LABEL: "Yes"
- MOLECULE: "C[C@@H]1CC[C@H]2[C@@H](C)C(O)O[C@@H]3O[C@@]4(C)CC[C@@H]1[C@]32OO4 (stereo partly specified)"
  LABEL: "Yes"

* * *

# TEST_PROTOCOL: chemical genetic growth profiling, strain panel (AID 1159580);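 further: tested at 20 µM; growth read once vehicle control cultures reached saturation at 30 °C; 1 = growth at the plate median or of vehicle wells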
# EXPERIMENTAL_PARAMETERS: S. cerevisiae deletion strains, growth OD, locus YLR058C, strain SHM2 (second series), hits give low values
In all, about 5,500 compounds went through this assay and about 2,000 (36%) were called active. Another 18% or so got no clear call; they are omitted. The list shows a part of the results.
Criterion: normalized growth strictly less than 1. Met: YES. Not met: NO.

- SUBSTANCE_SMILES: "CC(C)(C)c1ccc(-c2n[nH]c(=S)n2-c2cccc(C(F)(F)F)c2)cc1"
  LABEL: "NO"
- SUBSTANCE_SMILES: "S=C(NCc1ccccc1)Nc1ccc(Cl)c(Cl)c1"
  LABEL: "YES"
- SUBSTANCE_SMILES: "O=C(Nc1ccc(Cl)c(Cl)c1)c1ccccc1"
  LABEL: "YES"
- SUBSTANCE_SMILES: "O=C(Nc1ccc(Br)cc1Cl)C(Cl)(Cl)Cl"
  LABEL: "YES"
- SUBSTANCE_SMILES: "CSC(=CC(=O)c1ccc(Cl)cc1)SC"
  LABEL: "YES"
- SUBSTANCE_SMILES: "Cc1ccc2[nH]c3c(c2c1)CCCC3"
  LABEL: "YES"

* * *

# TEST_PROTOCOL: chemical genetic growth profiling, strain panel (AID 1159580);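 further: tested at 20 µM; growth read once vehicle control cultures reached saturation at 30 °C; 1 = growth at the plate median or of vehicle wells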
# EXPERIMENTAL_PARAMETERS: S. cerevisiae deletion strains, growth OD, locus YJR075W, strain HOC1, hits give low values
In all, about 5,500 compounds went through this assay and about 2,000 (36%) were called active. Roughly 18% stayed inconclusive and do not appear here. The list shows a part of the results.

- SUBSTANCE_SMILES: "CC(C)(Sc1cc(C(C)(C)C)c(O)c(C(C)(C)C)c1)Sc1cc(C(C)(C)C)c(O)c(C(C)(C)C)c1"
  normalized growth: 1.01
- SUBSTANCE_SMILES: "O=C1C(O)=C(O)C(=O)C(O)=C1O"
  normalized growth: 0.999
- SUBSTANCE_SMILES: "O=C1Cc2c([nH]c3ccc(Br)cc23)-c2ccccc2N1"
  normalized growth: 1.06
- SUBSTANCE_SMILES: "Cc1cc(C(C)(C)C)c(O)c(C(C)(C)C)c1"
  normalized growth: 0.929
- SUBSTANCE_SMILES: "C[C@@H]1C(=O)O[C@H]2[C@H]1CC[C@@]1(C)C=CC(=O)[C@@]3(C)O[C@@]213"
  normalized growth: 1.02
- SUBSTANCE_SMILES: "NC(=S)COc1ccccc1Cl"
  normalized growth: 1.01
